system: Fibroblast; assay: Multiplex assay against human fibroblast; format: toxicity, cell-based; conditions: 48 h, 1 µM, compound concentration 1 uM, replicate 1
quantity: Population Fragmented Nuclei (%)

• O=C(c1cc2c(cc1F)OC(c1ccc(F)cc1)(c1ccc(Cl)cc1Cl)O2)N1CCOCC1 (stereo not drawn) = 31
• COc1cc2ncn(-c3cc(OCc4ccccc4C(F)(F)F)c(C(N)=O)s3)c2cc1OC [GW843682X] = 39
• CCc1ccc(OCc2ccccc2C(=O)Nc2ccc3nc(C)cc(N)c3c2)cc1.Cl = 46

* * *

tested on: U2OS; experiment: Multiplex assay against U2OS; format: toxicity, cell-based; conditions: human, 12 h, 10 µM, compound concentration 10 uM, replicate 2
quantity: Population Mitotic Cells (%)

- CNC(=O)Nc1ccc(-c2nc(N3CC4CCC(C3)O4)c3cnn(C4CCC5(CC4)OCCO5)c3n2)cc1: 75
- CCc1nn(CCCN2CCN(c3cccc(Cl)c3)CC2)c(=O)n1CCOc1ccccc1.Cl [NEFAZODONE HYDROCHLORIDE]: 30
- Cc1ccc2c(c1)c1c(n2CCc2ccc(C)nc2)CCN(C)C1 [LATREPIRDINE]: 11
- COc1cc2ncn(-c3cc(OCc4ccccc4C(F)(F)F)c(C(N)=O)s3)c2cc1OC [GW843682X]: 50
- CC(C)NC(=O)N1CC[C@H](NC2=Nc3cc(F)ccc3N(CC(F)F)c3ccc(Cl)cc32)C1: 100
- O=C(c1cc2c(cc1F)OC(c1ccc(F)cc1)(c1ccc(Cl)cc1Cl)O2)N1CCOCC1 (stereo not given): 28
- CNC(=O)Nc1ccc2c(c1)[C@@]1(CC2)OC(=O)N(CC(=O)N(Cc2ccc(F)cc2)[C@@H](C)C(F)(F)F)C1=O: 66
- O=c1cc(N2CCOCC2)oc2c(-c3cccc4c3sc3ccccc34)cccc12: 68
- C=CC(=O)Nc1ccc2[nH]c(=O)n(C3CCN(Cc4ccc(-c5nc6cc[nH]c(=O)c6cc5-c5ccccc5)cc4)CC3)c2c1: 40
- CCc1ccc(OCc2ccccc2C(=O)Nc2ccc3nc(C)cc(N)c3c2)cc1.Cl: 23
- C[C@]12CC[C@@H]3c4ccc(O)cc4CC[C@H]3[C@@H]1CC[C@@H]2O: 75
- CC1=C(C(=O)Nc2cc3cn[nH]c3cc2F)C(c2ccc(C(F)(F)F)cc2)CC(=O)N1 (stereo not given): 50
- CC(C)(C)NC[C@H](O)COc1nsnc1N1CCOCC1: 66
- Cc1ccccc1C(c1ccccc1C)N1C2CCC1CC(O)(c1ccccc1)C2 (stereo not given): 60
- C=CC(=O)Nc1cccc(Oc2nc(Nc3ccc(N4CCN(C)CC4)cc3OC)ncc2Cl)c1: 75

* * *

Parameter Growth Rate: see the listing below.
tested on: U2OS; experiment: Incucyte cell viability with U2OS; assay type: toxicity, cell-based; settings: human, 0 h, 10 µM, compound concentration 10 uM, replicate number 1, timepoint 0 hours; note: filed as whole numbers so only -1 and 0 and 1 occur
quantity: Growth Rate

- CC(C)OC(=O)N1CCC(Oc2ncnc3c2cnn3-c2ccc(S(C)(=O)=O)cc2F)CC1: 0
- CO[C@@H](C)c1c(Nc2ccc([C@H](N(C)C(=O)C3CCS(=O)(=O)CC3)C(F)(F)F)cc2)cnc2cc(Cl)nn12 [NVS-MALT1]: 0
- CN1CCN(Cc2ccc(Nc3ncc(Cl)c(Nc4ccccc4S(=O)(=O)N(C)C)n3)cc2)CC1 [DUBERMATINIB]: 0
- CC(C)Oc1ccccc1C(=O)Nc1ccccc1C(=O)Nc1cccc(S(=O)(=O)C(F)(F)F)c1: 0
- CNC(=O)c1ccc(Nc2ncc(C(F)(F)F)c(NCc3nccnc3N(C)S(C)(=O)=O)n2)cc1 [DEFACTINIB]: 0
- CN(c1ccccc1CNc1nc(Nc2ccc3c(c2)CC(=O)N3)ncc1C(F)(F)F)S(C)(=O)=O: 0
- CC(C)NC(=O)N1CC[C@H](NC2=Nc3cc(F)ccc3N(CC(F)F)c3ccc(Cl)cc32)C1: 0
- C[C@H](NC[C@H](O)CP(=O)(O)CC1CCCCC1)c1ccc(Cl)c(Cl)c1.Cl: 0
- O=c1cc(N2CCOCC2)oc2c(-c3cccc4c3sc3ccccc34)cccc12: 0
- CC(C)(C)NC[C@H](O)COc1nsnc1N1CCOCC1 [TIMOLOL]: 0
- O=c1[nH]c2ccccc2n1C1CCN(Cc2ccc(-c3[nH]c4cc5ncnc5cc4nc3-c3ccccc3)cc2)CC1: 0
- CNCc1ccccc1-c1csc([C@@H](C)Nc2nc(C)nc3cc(OC)c(OC)cc23)c1 [BAY-293]: 0
- C[C@]1(C(=O)N(CCCC(=O)O)Cc2cccc(Cl)c2)CCN1C(=O)c1csc2ccccc12 [GLPG-0974]: 0
- CC1(C)CCC(C)(C)c2cc(C(=O)Nc3ccc(C(=O)O)cc3)ccc21: 0
- COc1cc(C(=O)NS(=O)(=O)c2ccccc2C)ccc1Cc1cn(C)c2ccc(NC(=O)OC3CCCC3)cc12 [ZAFIRLUKAST]: 0
- CC#CC(=O)N1CCC[C@H]1c1nc(-c2ccc(C(=O)Nc3ccccn3)cc2)c2c(N)nccn12 [ACALABRUTINIB]: 0
- COC(=O)C(Cc1ccc(OCCn2c(=O)sc3cc(C(=O)c4ccccc4)ccc32)cc1)C(=O)OC: 0

* * *

tested on: Fibroblast; test: Multiplex assay against human fibroblast; format: toxicity, cell-based; settings: 48 h, 10 µM, compound concentration 10 uM, replicate 1
Parameter Population Healthy Nuclei (%): see the listing below.
quantity: Population Healthy Nuclei (%)

* CC(C)c1noc(N2CCC(COc3ccc(-c4ccc(S(C)(=O)=O)cc4)nc3)CC2)n1 [GSK-1292263] | 54
* Cc1ccc2c(c1)c1c(n2CCc2ccc(C)nc2)CCN(C)C1 [LATREPIRDINE] | 56
* CCOC(=O)Nc1cc(-c2ccc(C)c(NS(C)(=O)=O)c2)nn2c(C)nnc12 | 56
* CC(C)(C)NC[C@H](O)COc1nsnc1N1CCOCC1 [TIMOLOL] | 45
* COc1ccccc1CN[C@H]1C2CCN(CC2)[C@H]1C(c1ccccc1)c1ccccc1 [CP-96345] | 58
* CC(C)Oc1ccccc1C(=O)Nc1ccccc1C(=O)Nc1cccc(S(=O)(=O)C(F)(F)F)c1 | 24
* CCc1nn(CCCN2CCN(c3cccc(Cl)c3)CC2)c(=O)n1CCOc1ccccc1.Cl [NEFAZODONE HYDROCHLORIDE] | 55
* Cc1cccc(CN2CCN(C(c3ccccc3)c3ccc(Cl)cc3)CC2)c1.Cl.Cl (centres undefined) | 54
* COc1cc(Nc2nccc(-c3cnn4nc(OC)ccc34)n2)cc(C(F)(F)F)c1 | 21

* * *

tested on: U2OS; assay: Multiplex assay against U2OS; assay type: toxicity, cell-based; conditions: human, 24 h, 1 µM, compound concentration 1 uM, replicate 1
Parameter Population Fragmented Nuclei (%): see the listing below.
quantity: Population Fragmented Nuclei (%)

* O=c1[nH]c2ccccc2n1C1CCN(Cc2ccc(-c3[nH]c4cc5ncnc5cc4nc3-c3ccccc3)cc2)CC1 | 7
* Cc1ccc(C)c(Oc2ccncc2C(=O)N2CCN(C3CC3)c3ccccc32)c1 | 8
* C[C@]1(O)C[C@@H](c2nc(-c3ccc4ccc(-c5ccccc5)nc4c3)c3c(N)nccn32)C1 | 4
* COc1cc(Nc2nccc(-c3cnn4nc(OC)ccc34)n2)cc(C(F)(F)F)c1 | 14
* Cc1cc(C)c(-n2ccn3nc(-c4cccnc4)cc23)cc1NC(=O)c1cc(C#N)cc(S(F)(F)(F)(F)F)c1 | 9
* CC(C)NC(=O)N1CC[C@H](NC2=Nc3cc(F)ccc3N(CC(F)F)c3ccc(Cl)cc32)C1 | 9
* COc1cc2ncn(-c3cc(OCc4ccccc4C(F)(F)F)c(C(N)=O)s3)c2cc1OC [GW843682X] | 14
* CC(C)(C)NC[C@H](O)COc1nsnc1N1CCOCC1 | 10
* CNC(=O)Nc1ccc(-c2nc(N3CC4CCC(C3)O4)c3cnn(C4CCC5(CC4)OCCO5)c3n2)cc1 | 28

* * *

tested on: Fibroblast; assay: Multiplex assay against human fibroblast; format: toxicity, cell-based; settings: 48 h, 10 µM, compound concentration 10 uM, replicate 1
For each record, check the reported Population Pyknosed Nuclei (%): if it is below 10% write y, else write n.

* CCc1ccc(OCc2ccccc2C(=O)Nc2ccc3nc(C)cc(N)c3c2)cc1.Cl | y
* Cl.O=C(O)c1cc(-c2ccc(C3CCNCC3)cc2)c2ccc(-c3ccc(C(F)(F)F)cc3)cc2c1 | n
* Cc1ccccc1C(c1ccccc1C)N1C2CCC1CC(O)(c1ccccc1)C2 (stereo not drawn) | y
* C#Cc1cccc(Nc2ncnc3cc(OCCOC)c(OCCOC)cc23)c1 | n
* Cc1cccc(CN2CCN(C(c3ccccc3)c3ccc(Cl)cc3)CC2)c1.Cl.Cl (stereo not drawn) | y
* CNC(=O)Nc1ccc(-c2nc(N3CC4CCC(C3)O4)c3cnn(C4CCC5(CC4)OCCO5)c3n2)cc1 | n
* CC(C)Oc1ccccc1C(=O)Nc1ccccc1C(=O)Nc1cccc(S(=O)(=O)C(F)(F)F)c1 | y
* CCCSc1nc(N[C@@H]2C[C@H]2c2ccc(F)c(F)c2)c2nnn([C@@H]3C[C@H](OCCO)[C@@H](O)[C@H]3O)c2n1 | n
